Every entry's value here was drawn from ChEMBL document CHEMBL2396592.

Reported CC50 at 24 h by item:
Assay: Cytotoxicity against human RPTEC after 24 hrs by LDH assay
Format: cell-based
Conditions: RPTEC cells, read-out: TC50
Where a SMILES comes first, the peptide text is derived from it. Bridges are numbered along the chain shown (N, C = ends). [ ]: non-standard residue; d: D form. The star is where a group is joined. Benzoyl(3-Ph) = O=C(c1cccc(-c2ccccc2)c1)*; X3 = O=C(c1cncc(-c2ccccc2)c1)*; X6 = CC[C@H](C)CCCCC(=O)*; Dab = NCC[C@H](N)C(=O)O; Dap = NC[C@H](N)C(=O)O
Form entry: value (µM) — number only.

Query: Given CC[C@H](C)CCCCC(=O)N[C@@H](CCN)C(=O)N[C@H](C(=O)N[C@@H](CN)C(=O)N[C@H]1CCNC(=O)[C@H]([C@@H](C)O)NC(=O)[C@H](CCN)NC(=O)[C@H](CCN)NC(=O)[C@H](CC(C)C)NC(=O)[C@@H](Cc2ccccc2)NC(=O)[C@H](CCN)NC1=O)[C@@H](C)O (X6-[Dab]T[Dap][Dab][Dab][dF]L[Dab][Dab]T; lactam 4-C) , respond with its CC50 at 24 h.
Reply: 72

Query: Find the measured CC50 at 24 h of CC(C)C[C@@H]1NC(=O)[C@@H](Cc2ccccc2)NC(=O)[C@H](CCN)NC(=O)[C@@H](NC(=O)[C@H](CN)NC(=O)[C@@H](NC(=O)[C@H](CCN)NC(=O)c2cncc(-c3ccccc3)c2)[C@@H](C)O)CCNC(=O)[C@H]([C@@H](C)O)NC(=O)[C@H](CCN)NC(=O)[C@H](CCN)NC1=O (X3-[Dab]T[Dap][Dab][Dab][dF]L[Dab][Dab]T; lactam 4-C) and report it.
Reply: 56

Query: Kindly indicate its recorded CC50 at 24 h. Item: CC(C)C[C@@H]1NC(=O)[C@@H](Cc2ccccc2)NC(=O)[C@H](CCN)NC(=O)[C@@H](NC(=O)[C@H](CN)NC(=O)[C@@H](NC(=O)[C@H](CCN)NC(=O)c2cccc(-c3ccccc3)c2)[C@@H](C)O)CCNC(=O)[C@H]([C@@H](C)O)NC(=O)[C@H](CCN)NC(=O)[C@H](CCN)NC1=O ({Benzoyl(3-Ph)}-[Dab]T[Dap][Dab][Dab][dF]L[Dab][Dab]T; lactam 4-C)
Reply: 21

---

Experiment: Cytotoxicity against human RPTEC after 24 hrs by LDH assay
Assay type: cell-based
Settings: RPTEC cells, read-out: TC50
*1 amine or outer side, *2 acyl side, *3 side chain or, on linkers, in order; H or OH if unused. Where a SMILES comes first, the peptide text is derived from it. Bridges are numbered along the chain shown (N, C = ends). [ ]: non-standard residue; d: D form. The star is where a group is joined. Isonicotinoyl(2-Ph) = O=C(c1ccnc(-c2ccccc2)c1)*; X16 = COc1cc(C(=O)*)cc(-c2ccccc2)n1; X18 = c1ccc(-c2cccc(N*)c2)cc1; Dab = NCC[C@H](N)C(=O)O; Dap = NC[C@H](N)C(=O)O; CO = O=C([*:1])[*:2]
Metric Name: CC50 at 24 h (µM)
Reply numerically in µM, unit not repeated.

For orientation, consider the following solved cases.
Compound: COc1cc(C(=O)N[C@@H](CCN)C(=O)N[C@H](C(=O)N[C@@H](CN)C(=O)N[C@H]2CCNC(=O)[C@H]([C@@H](C)O)NC(=O)[C@H](CCN)NC(=O)[C@H](CCN)NC(=O)[C@H](CC(C)C)NC(=O)[C@@H](Cc3ccccc3)NC(=O)[C@H](CCN)NC2=O)[C@@H](C)O)cc(-c2ccccc2)n1 (X16-[Dab]T[Dap][Dab][Dab][dF]L[Dab][Dab]T; lactam 4-C)
Metric Name: CC50 at 24 h
Value Observed: 24
//
Compound: CC(C)C[C@@H]1NC(=O)[C@@H](Cc2ccccc2)NC(=O)[C@H](CCN)NC(=O)[C@@H](NC(=O)[C@H](CN)NC(=O)[C@@H](NC(=O)[C@H](CCN)NC(=O)Nc2cccc(-c3ccccc3)c2)[C@@H](C)O)CCNC(=O)[C@H]([C@@H](C)O)NC(=O)[C@H](CCN)NC(=O)[C@H](CCN)NC1=O ({X18-CO}-[Dab]T[Dap][Dab][Dab][dF]L[Dab][Dab]T; lactam 4-C)
Metric Name: CC50 at 24 h
Value Observed: 15

Query: Tell me CC50 at 24 h reported for CC(C)C[C@@H]1NC(=O)[C@@H](Cc2ccccc2)NC(=O)[C@H](CCN)NC(=O)[C@@H](NC(=O)[C@H](CN)NC(=O)[C@@H](NC(=O)[C@H](CCN)NC(=O)c2ccnc(-c3ccccc3)c2)[C@@H](C)O)CCNC(=O)[C@H]([C@@H](C)O)NC(=O)[C@H](CCN)NC(=O)[C@H](CCN)NC1=O ({Isonicotinoyl(2-Ph)}-[Dab]T[Dap][Dab][Dab][dF]L[Dab][Dab]T; lactam 4-C)
Reply: 82
